Data provenance is PubChem BioAssay (NCATS).

Assay: Cell Viability - LYMP1-003 - Assay at 24 hr (AID 963)
Conditions: LYMP1-003 lymphoblastoid cell viability; series mostly up to 92.2 µM
Calls of active or inactive are those of the source. Calls come from the whole dose curve; as a rule, active = well fitted cell-killing curve with a large enough effect; inconclusive = small, poorly fitted or top-dose-only effect; inactive = flat fitted curve, though single readings scatter.
Outcomes: active, inactive

| compound | cat |
| --- | --- |
| c1ccc2c(c1)-c1cccc3c1c-2cc1ccccc13 | inactive |
| Cc1cc(O)c(C(C)(C)C)cc1Sc1cc(C(C)(C)C)c(O)cc1C | active |
| c1cc(OCC2CO2)cc(OCC2CO2)c1 (stereo not drawn) | inactive |
| O=C=Nc1ccc(Cc2ccc(N=C=O)cc2)cc1 | inactive |
| c1ccc2c(c1)ccc1cc3c(ccc4ccccc43)cc12 | inactive |
| Oc1ccc2cc(SSc3ccc4cc(O)ccc4c3)ccc2c1 | active |
| CC(=O)Nc1ccc(C(=O)CCl)cc1 | active |
| O=Cc1ccc(Cl)c(Cl)c1 | inactive |
